Measured growth values are reported for all entries that follow.
- Test system: OVCAR-8 ovarian
- assay-summary: NCI-60 one-dose screen, 48 h (100 = growth as untreated, 0 = no growth, -100 = all killed)
- condition-context: 10 µM unless noted
The panel holds about 83,000 compounds, 20% with a hit somewhere; the sample as a whole holds those more often. Calls of active or inactive are those of the source. Rule for the calls: active = growth percent below 10; inactive = the rest.

molecule | growth
CCc1ccccc1-n1c(N)c(C#N)c(-c2ccc(N(C)C)cc2)c(C#N)c1=O | 101% (inactive)
COc1cc(/C=N/Nc2ncc(-c3cc4cc5c(cc4o3)OCO5)s2)cc(OC)c1OC | 30% (inactive)
Clc1ccc(-c2c3ccc(=[N+]4CCCCC4)cc-3oc3cc(N4CCCCC4)ccc23)cc1 | -50.6% (active)
COc1ccc(NC(=O)CSc2nc(C)c(C(C)=O)n2-c2ccc(Cl)cc2)cc1 | 88.7% (inactive)
Clc1cc(Cl)cc(Nc2ccc3cc(OCCCN4CCOCC4)ccc3n2)c1 | 44.4% (inactive)
O=C1c2cccc(NCCN=Cc3cc([N+](=O)[O-])ccc3O)c2C(=O)c2c(NCCN=Cc3cc([N+](=O)[O-])ccc3O)cccc21 | 78.5% (inactive)
CCOP(=O)(OCC)C1CP(=O)(c2ccccc2)CC(C)=C1Cl (stereo not drawn) | 85.7% (inactive)
N/C(=N\c1nc2ccccc2s1)NC(=O)Nc1cccc(Cl)c1 | 47.7% (inactive)
CNc1ccc(NC)c2c1C(=O)c1ccccc1C2=O | 71.5% (inactive)
CCCCCCCCCCCCCCCCCCOc1ccccc1CC(=O)OCCC[N+](C)(C)C | 43.8% (inactive)
CN(C)c1ccc(-c2ccc3[nH]c(=O)nc(-c4ccccc4)c3c2)cn1 | 63.8% (inactive)
C=C(C)[C@@H]1CC=C2c3sc(-c4ccc(C)cc4)nc3C[C@@H](C)[C@]2(C)C1 | 99.3% (inactive)
CC(=O)c1nc(Nc2ccc(C)cc2)sc1C | 95% (inactive)

====

- Tested on: HCC-2998 colon
- assay-summary: NCI-60 one-dose screen, 48 h (100 = growth as untreated, 0 = no growth, -100 = all killed)
- condition-context: 10 µM unless noted
- Protocol: Growth inhibition of the HCC-2998 human tumor cell line is measured as a screen for anti-cancer activity. Cells are grown in 96 well plates and exposed to the test compound for 48 hours. Compounds are tested at a single concentration, which is 10^-5 M for most compounds. The reported endpoint is percent growth (GI% or GIPRCNT), where numbers from 0 - 100% represent growth inhibition, and numbers from -100% - 0 represent cell death. For example, a value of 40 represents 60% growth inhibition. […]
This is part of a sample that, as a whole, favours compounds with a hit. Of some 83,000 tested, about 20% had one in any assay.
Property: growth; scope: individual compounds

compound | assay-system | unit-label | growth
COc1cccc(-c2nc3sccn3c2-c2ccnc(NCCNS(=O)(=O)c3ccc(C(F)(F)F)cc3)c2)c1 | HCC-2998 colon | % | 70
O=C(/C=C/c1ccc(Cl)nc1)c1ccc(Cl)cc1Cl | HCC-2998 colon | % | 114
CC1(C)CC[C@]2(C(=O)N3CCOCC3)CC[C@]3(C)C(=CC[C@@H]4[C@@]5(C)CC[C@H](OC(=O)c6cccnc6)C(C)(C)[C@@H]5CC[C@]43C)[C@@H]2C1 | HCC-2998 colon | % | 58.7
COc1ccc(-c2[nH]c(=S)n(C(CC3(C)NCC(=O)N3n3c(-c4ccccc4)cc(C)nc3=S)c3ccc(OC)cc3)c(=O)c2Br)cc1 (configuration not stated) | HCC-2998 colon | % | 61.2
O=C(Nc1cccc2c(O)c(N=Nc3ccc(S(=O)(=O)Nc4nccs4)cc3)cc(N=Nc3ccc(S(=O)(=O)Nc4nccs4)cc3)c12)C(Cl)Cl | HCC-2998 colon | % | 107
C(=N\Nc1ncc(-c2cc3cc4c(cc3o2)OCO4)s1)/c1ccco1 | HCC-2998 colon | % | 62.7
Cc1c(C(=O)NC(Cc2ccccc2)C(O)C(=O)NCc2ccc(F)cc2)[nH]c2ccccc2c1=O (configuration not stated) | HCC-2998 colon | % | 118

====

- System: SF-295 CNS
- assay-summary: NCI-60 one-dose screen, 48 h (100 = growth as untreated, 0 = no growth, -100 = all killed)
- condition-context: 10 µM unless noted
This is part of a sample that, as a whole, favours compounds with a hit. Of some 83,000 tested, about 20% had one in any assay. The source made the active and inactive calls. The calls were made as follows: active = growth percent below 10; inactive = the rest.

compound | growth
O=C(Nc1cccc2c(O)c(N=Nc3ccc(S(=O)(=O)Nc4nccs4)cc3)cc(N=Nc3ccc(S(=O)(=O)Nc4nccs4)cc3)c12)C(Cl)Cl | 78.2% (inactive)
O=C(c1ccccc1)c1c(/C=C/c2ccccc2)nc2ccccc2c1/C=C/c1ccc(Br)cc1 | 101% (inactive)
COc1ccc2[nH]c(O)c(/C=c3/cc4c(c(-c5cc(OC)c(OC)c(OC)c5)n3)=Nc3ccccc3-4)c2c1 | 76.9% (inactive)
COc1ccc(C2=Nc3c(N)ncnc3NC(c3ccc4c(c3)OCO4)C2)cc1 (stereo not drawn) | 118% (inactive)
CCOc1ccccc1-c1cc(-c2cccs2)c(C#N)c(=O)[nH]1 | 93.6% (inactive)
N=c1sc(Cc2ccc(Cl)cc2)cn1CC(=O)c1ccc(F)cc1 | 64.7% (inactive)
Nc1cc2c3c(cccc3c1)C(=O)N(CCN1CCCC1)C2=O | 44.5% (inactive)
Cc1ccc2nc3ccccc3c(NCc3ccccc3)c2c1 | 28.1% (inactive)
CCCCn1c(=O)c2c(nc(NCCc3ccc(O)c(O)c3)n2CCC)n(CCCC)c1=O | 94.7% (inactive)
Cc1ccc(N(C(=O)CCc2c[nH]c3ccccc23)[C@H](C(=O)Nc2ccc(Cl)cc2)c2cccc([N+](=O)[O-])c2)cc1 | 105% (inactive)
CC1=CN2C(=O)C3C4=C(CCCC4)SC3N=C2CN1c1c(C)cccc1C (stereo not drawn) | 81.6% (inactive)
CC(=O)c1nc(Nc2ccc(C)cc2)sc1C | 104% (inactive)
CCCCn1c(=O)c2c(nc3n2CCCN3CCc2ccc(OCC(=O)NCCN(CC)CC)cc2)n(CCCC)c1=O | -22.3% (active)

====

- Test system: MALME-3M melanoma
- assay-summary: NCI-60 one-dose screen, 48 h
- condition-context: 10 µM unless noted
This is part of a sample that, as a whole, favours compounds with a hit. Of some 83,000 tested, about 20% had one in any assay. Calls of active or inactive are those of the source. Rule for the calls: active = growth percent below 10; inactive = the rest.
Labels: active, inactive

molecule | label-value
O=C(c1ccc(Nc2nccc(NCCCCNc3ccnc4cc(Cl)ccc34)n2)cc1)N1CCCCC1 | active
COc1cc(C(=O)/C=C/c2c(C(F)(F)F)nc3sccn23)cc(OC)c1OC | inactive
O=c1c2cc(F)ccc2sc2c(NCCCN3CCCC3)nc3ccccc3c12 | inactive
O=C(CSc1nccc(Nc2ccc(S(=O)(=O)Nc3nccs3)cc2)n1)c1ccc(F)cc1 | inactive
c1ccc(Nc2nc(-c3ccccn3)cs2)nc1 | active
O=[N+]([O-])c1ccc(C2CC(c3ccccc3)=Nc3ccccc3S2)cc1 (stereo not given) | inactive
CC1(C)OC2C(CO[Si](C)(C)C(C)(C)C)OC(n3c(I)c(C#C[Si](C)(C)C)c(=O)[nH]c3=O)C2O1 (stereo not given) | inactive
COc1cccc(-c2nn(-c3ccccc3)cc2-c2ccnc(NCCNC(=O)Nc3cccc(C(F)(F)F)c3)c2)c1 | inactive
O=C(Cc1ccc(F)c(F)c1)Nc1cc(C2(C(F)(F)F)CC2)nn1Cc1ccccc1 | active
CCCc1cc2c(=O)c(C(=O)OC)c[nH]c2cc1N(CC)CC | inactive
O=C(/C=C/c1cccc(O)c1)c1cccc(-n2cc(-c3ccc4ccccc4c3)[nH]c2=O)c1 | active
Cc1ccc(Nc2nc(N)nc(CSCC(=O)NN)n2)cc1 | inactive
C[n+]1cc2cc(C(N)=O)[nH]c3c(=N)c(Cl)c(N)c1c23 | inactive
O=[N+]([O-])c1ccc(N2c3ccncc3Sc3ccncc32)cc1 | inactive
N#CC1=C(NC=O)Oc2c(ccc3ccccc23)C1c1ccccc1 (stereo not given) | inactive
N#Cc1c(-c2cccc(Cl)c2)cc(-c2cccc(F)c2)[nH]c1=O | inactive
Cc1ccc(Cl)c(NS(=O)(=O)c2ccc(-c3cnc(C4CC4)o3)cc2)c1 | inactive
COc1cccc(-c2nc3sccn3c2-c2ccnc(NCCNS(=O)(=O)c3ccc(C(F)(F)F)cc3)c2)c1 | inactive
O=C(NC(CSSCC(NC(=O)c1ccccc1)C(=O)O)C(=O)O)c1ccccc1 (stereo not given) | inactive
Cc1c(O)cc(-c2cnc(N/N=C\c3ccc(Cl)cc3)s2)c(O)c1C | inactive
CCOC(=O)c1c(-c2ccc(Cl)cc2)c(C#N)c(=O)n(-c2ccccc2CC)c1N | inactive
CC(=O)OC1CCC2(C)C(=CC3C4CCC(=O)C4(C)CCC32)C1 (stereo not given) | inactive
C[C@@H]1N=C(c2ccc3ccccc3n2)Nc2nc3ccccn3c2C1=O | inactive
CCCCNC(=O)Oc1ccc2c(=O)c3sc4c(=O)c5ccccc5c(=O)c4c3c(=O)c2c1 | active
Nc1ccc2c(c1)c(N)nn2C(=O)Nc1ccc(Cc2ccccc2)cc1 | inactive
COc1ccc(CN2C(=O)C(Cl)=C(Nc3cccc(C(F)(F)F)c3)C2=O)cc1 | inactive
c1coc(-c2c3ccc(=[N+]4CCCCC4)cc-3oc3cc(N4CCCCC4)ccc23)c1 | active
COc1cccc(-c2nn(-c3ccccc3)cc2-c2ccnc(NCCCNC(=O)c3ccc(F)cc3)c2)c1 | inactive
COc1ccc(C(=O)COc2ccc(/C=C3\Oc4ccccc4C3=O)cc2)cc1 | inactive
O=C1Nc2ccc(F)cc2C12Nc1cc(Cl)ccc1S2 (stereo not given) | inactive
CC/C=C\C[C@H](O)C/C=C1/C(=O)C=C[C@@H]1C/C=C\CCCCO | inactive
CCCCCCCCCCN(CCCCCCCCCC)CC(=O)c1ccc2cc(Br)c3ccccc3c2c1 | active
C=CC(=O)Nc1cccc(Oc2nccc(Nc3nnc(C4CC4)s3)n2)c1 | inactive
Cc1c2c(c(C)c3c1oc1cc(O)ccc13)C(=O)N(CCN1CCCCC1)C2=O | inactive
COc1cccc(Nc2nccc(Nc3ccc4[nH]ncc4c3)n2)c1 | active
